Hey, just so you know, these numbers are from paper PMC12064818.

TARGET_SYSTEM: FLuc-C-HiBiT (Photinus pyralis, UniProt P08659)
Construct: firefly luciferase with C-terminal HiBiT tag, E. coli expressed
Sequence (P08659 whole entry, looked up): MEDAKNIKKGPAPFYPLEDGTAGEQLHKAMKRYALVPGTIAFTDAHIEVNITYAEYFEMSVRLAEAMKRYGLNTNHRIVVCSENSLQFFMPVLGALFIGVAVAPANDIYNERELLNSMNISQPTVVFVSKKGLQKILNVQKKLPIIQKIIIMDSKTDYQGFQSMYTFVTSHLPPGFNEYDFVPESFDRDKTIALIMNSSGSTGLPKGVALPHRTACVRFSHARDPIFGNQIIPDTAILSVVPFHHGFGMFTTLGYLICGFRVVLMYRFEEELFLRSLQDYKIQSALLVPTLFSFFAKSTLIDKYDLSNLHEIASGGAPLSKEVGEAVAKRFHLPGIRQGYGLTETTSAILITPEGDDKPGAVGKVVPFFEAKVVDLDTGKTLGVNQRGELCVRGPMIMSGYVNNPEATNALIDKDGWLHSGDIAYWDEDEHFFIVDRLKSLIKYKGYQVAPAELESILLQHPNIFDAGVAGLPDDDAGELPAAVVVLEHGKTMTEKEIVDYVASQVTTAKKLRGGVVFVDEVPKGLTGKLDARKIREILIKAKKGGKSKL
METHOD_DESCRIPTION: biochemical
CONDITION_SUMMARY: enzyme activity, 10 uM ATP; read-out: IC50 or SDR50 (mM) / FLuc E
# note: exactly 0.01 mM is not below, so it is 0.0; use 1.0 for IC50 strictly under it

Worked examples, 9 molecules total:
molecule=COc1ccc(-c2cccc(COc3cnc4c(ccn4CC(=O)O)c3)c2)c(C)c1 class=0.0
molecule=Oc1cc(-c2nc3ccccc3s2)cc2c1OCCN(Cc1ncccn1)C2 class=0.0
molecule=CCCN1C(=O)c2ccc(-c3nc4ccccc4s3)cc2C1=O class=1.0
molecule=COc1ccc(NC(=O)N2CCc3c(C(=O)N(C)Cc4ccco4)cccc32)cc1 class=1.0
molecule="Cc1cc2c(c(-c3nc4ccccc4s3)c1)OC(CNC(=O)CCc1cccnc1)C2 (stereo not shown)" class=0.0
molecule=COc1ccc(C(=O)N2CCc3ccc(C(=O)Nc4ccc5c(c4)OCCO5)cc32)cc1 class=1.0
molecule=O=C(Nc1ccc2c(c1)OCCO2)N1CCC(c2nc(C3CCOCC3)no2)CC1 class=0.0
molecule="COc1ccc(-c2cc(N3CCCC(NC(=O)c4ccc5[nH]ccc5c4)C3)[nH]n2)cc1 (stereo not shown)" class=1.0
molecule=COc1ccc(OCC(=O)Nc2cc(-c3nc4ccccc4s3)ccc2C)cc1 class=0.0

Field: next molecule
Exam item: Here's an entry: Cc1csc(NC(=O)c2nc3c(o2)CCN(Cc2cccc(F)c2)CC3)n1 . Is its IC50 below 0.01 mM?
Marked response: 0.0

====

TARGET_SYSTEM: UniProt P17612
METHOD_DESCRIPTION: SDR assay, PKA-N-HiBiT
CONDITION_SUMMARY: PKA-N-HiBiT qHTS, SDR assay; average maximal response
Where a name gives a salt, the structure may show the parent alone.
List of SDR Ave Max Response values.
I only need the number, thanks.

For orientation, consider the following solved cases.
molecule=Cc1cc(Nc2ncc3cc(-c4c(Cl)cccc4Cl)c(=O)n(C)c3n2)ccc1F assay_metric="SDR Ave Max Response" numeric_readout=-17.64
molecule=CCNC(=O)Nc1ccc(-c2nc3c(c(N4CCOC[C@@H]4C)n2)CCN(c2ncccn2)C3)cc1 assay_metric="SDR Ave Max Response" numeric_readout=1.84
molecule=Cc1cn(-c2cccc(NC(=O)c3ccc(C)c(Nc4nccc(-c5cccnc5)n4)c3)c2)cn1 assay_metric="SDR Ave Max Response" numeric_readout=-2.45
molecule=CN1CCN(CCCNc2ncc(Cl)c(-c3cc4c(C(=O)NC5CC5)cccc4s3)n2)CC1 assay_metric="SDR Ave Max Response" numeric_readout=-2.90
molecule=CC(C)(C)n1nc(-c2cccc3ccccc23)c2c(N)ncnc21 assay_metric="SDR Ave Max Response" numeric_readout=10.40

Exam item: // returns reported SDR Ave Max Response for input Cc1ccccc1-n1c([C@H](C)Nc2nc(N)nc3[nH]cnc23)nc2cccc(C)c2c1=O [CAL-130 Hydrochloride]
Marked response: 2.85

Exam item: // returns reported SDR Ave Max Response for input Cc1cc(Nc2ncc3c(n2)N(C)C(=O)N(c2cc(NC(=O)c4cccc(C(F)(F)F)c4)ccc2C)C3)n(C)n1
Marked response: 2.55

Exam item: // returns reported SDR Ave Max Response for input Cc1n[nH]c2ccc(-c3cncc(OC[C@@H](N)Cc4c[nH]c5ccccc45)c3)cc12
Marked response: 40.10
